Provenance of the data: paper PMC7316778

# Target desc: ROS1 (Homo sapiens)
# Sequence (P08922 28-2347, species assumed): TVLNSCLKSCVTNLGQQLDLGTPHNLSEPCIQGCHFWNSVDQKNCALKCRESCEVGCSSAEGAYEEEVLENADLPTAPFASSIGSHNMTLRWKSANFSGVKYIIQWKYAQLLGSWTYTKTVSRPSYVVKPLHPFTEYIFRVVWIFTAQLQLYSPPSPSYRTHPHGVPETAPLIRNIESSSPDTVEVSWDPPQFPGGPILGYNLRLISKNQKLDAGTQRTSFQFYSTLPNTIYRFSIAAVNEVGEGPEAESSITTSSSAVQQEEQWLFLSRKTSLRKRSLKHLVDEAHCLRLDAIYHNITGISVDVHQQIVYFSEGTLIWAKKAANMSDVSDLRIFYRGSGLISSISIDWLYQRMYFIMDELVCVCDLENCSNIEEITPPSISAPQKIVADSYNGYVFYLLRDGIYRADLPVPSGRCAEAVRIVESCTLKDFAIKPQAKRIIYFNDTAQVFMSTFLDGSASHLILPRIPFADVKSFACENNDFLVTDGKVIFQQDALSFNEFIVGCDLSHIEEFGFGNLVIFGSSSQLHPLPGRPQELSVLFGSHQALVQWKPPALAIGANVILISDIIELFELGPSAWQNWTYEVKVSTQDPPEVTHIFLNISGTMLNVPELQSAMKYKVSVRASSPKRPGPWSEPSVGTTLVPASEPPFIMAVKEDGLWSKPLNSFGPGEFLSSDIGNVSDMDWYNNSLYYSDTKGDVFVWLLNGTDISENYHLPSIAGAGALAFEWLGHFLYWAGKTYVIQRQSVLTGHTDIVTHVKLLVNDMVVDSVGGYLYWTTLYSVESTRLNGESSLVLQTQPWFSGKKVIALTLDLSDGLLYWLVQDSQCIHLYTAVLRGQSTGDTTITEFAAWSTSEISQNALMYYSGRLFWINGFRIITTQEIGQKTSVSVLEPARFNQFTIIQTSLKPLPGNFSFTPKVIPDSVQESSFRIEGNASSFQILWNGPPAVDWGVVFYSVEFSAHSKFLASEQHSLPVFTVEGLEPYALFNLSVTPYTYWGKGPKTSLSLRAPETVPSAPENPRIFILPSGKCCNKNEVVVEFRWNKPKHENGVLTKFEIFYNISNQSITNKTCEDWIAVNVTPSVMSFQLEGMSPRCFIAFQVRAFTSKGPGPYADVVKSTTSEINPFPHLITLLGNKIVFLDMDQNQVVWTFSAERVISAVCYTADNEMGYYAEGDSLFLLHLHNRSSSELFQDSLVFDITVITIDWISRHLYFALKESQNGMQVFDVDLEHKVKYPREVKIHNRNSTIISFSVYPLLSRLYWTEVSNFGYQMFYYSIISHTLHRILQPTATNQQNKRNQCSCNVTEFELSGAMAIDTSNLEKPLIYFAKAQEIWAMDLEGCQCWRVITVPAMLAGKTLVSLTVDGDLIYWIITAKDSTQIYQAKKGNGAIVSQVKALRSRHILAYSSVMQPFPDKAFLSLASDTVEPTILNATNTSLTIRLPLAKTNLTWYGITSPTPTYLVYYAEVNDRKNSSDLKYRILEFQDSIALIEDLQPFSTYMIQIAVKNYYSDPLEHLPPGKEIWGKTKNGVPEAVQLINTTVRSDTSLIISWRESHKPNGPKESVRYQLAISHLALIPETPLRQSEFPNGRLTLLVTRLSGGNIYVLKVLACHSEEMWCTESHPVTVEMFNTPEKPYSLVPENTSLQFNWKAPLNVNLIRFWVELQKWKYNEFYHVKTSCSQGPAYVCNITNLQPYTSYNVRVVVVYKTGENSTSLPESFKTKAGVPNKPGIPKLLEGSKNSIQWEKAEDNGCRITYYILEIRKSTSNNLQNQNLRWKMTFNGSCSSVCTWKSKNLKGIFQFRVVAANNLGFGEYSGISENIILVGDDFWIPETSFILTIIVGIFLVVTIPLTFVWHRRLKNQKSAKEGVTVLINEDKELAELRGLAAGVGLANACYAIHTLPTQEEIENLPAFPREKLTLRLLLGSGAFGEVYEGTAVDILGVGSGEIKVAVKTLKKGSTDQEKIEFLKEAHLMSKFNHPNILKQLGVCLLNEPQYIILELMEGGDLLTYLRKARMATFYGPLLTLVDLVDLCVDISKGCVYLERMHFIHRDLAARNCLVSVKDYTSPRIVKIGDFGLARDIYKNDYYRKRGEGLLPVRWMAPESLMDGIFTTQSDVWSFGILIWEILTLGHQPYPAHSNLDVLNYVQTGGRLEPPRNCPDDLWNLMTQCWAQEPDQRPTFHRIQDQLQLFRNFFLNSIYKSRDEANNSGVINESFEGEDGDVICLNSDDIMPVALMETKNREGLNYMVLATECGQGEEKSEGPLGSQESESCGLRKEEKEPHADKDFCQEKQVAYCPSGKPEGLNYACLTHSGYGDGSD
# Assay explanation: SelectScreen kinase assay
Property: IC50

Exam item: Complete the entry with IC50 for `C#CCOc1ccc(Nc2ncc(Cl)c(Nc3ccccc3NC(=O)C=C)n2)c(OC)c1`
Marked response: > 10 µM

----------
Target or system FER^WT (Homo sapiens); recorded quantity pIC50.
Field pIC50 (float): negative decimal logarithm of the concentration in molar.

>>> reported("CCC(=O)Nc1ccccc1Nc1nc(Nc2ccccc2OC)ncc1Cl [Compound 5]")
6.90

Exam item: Complete the entry with pIC50 for C#CCOc1ccc(Nc2ncc(Cl)c(Nc3ccccc3NC(=O)C=C)n2)c(OC)c1 [Compound 6]
Marked response: 6.30

Exam item: Complete the entry with pIC50 for COc1ccccc1Nc1ncc(Cl)c(Nc2ccccc2S(=O)(=O)C(C)C)n1 [Compound 2]
Marked response: 8.30

Exam item: Complete the entry with pIC50 for C=CC(=O)Nc1ccccc1Nc1nc(Nc2ccccc2OC)ncc1Cl [Compound 4]
Marked response: 6.70

----------
# Target desc: FGR (Homo sapiens)
# Assay explanation: PamChip microarray peptide phosphorylation
# Run conditions: peptide substrate phosphorylated by FGR
Reported Relative phosphorylation (% of highest signal) values are given for each entry in this list.

Below are worked cases with known answers.
>>> reported("MBP_259_271 (FGYGGRASDYKSA; UniProt P02686 259-271, looked up, fragment)")
"0.634 % of highest signal"
>>> reported("VGFR1_1206_1218 (GSSDDVRYVNAFK; UniProt P17948 1206-1218, looked up, fragment)")
"-1.0 % of highest signal"
>>> reported("ODBA_340_352_D340K (KDSSAYRSVDEVN; UniProt P12694 340-352, looked up, variant D340K)")
"-0.358 % of highest signal"
>>> reported("VGFR2_1046_1058 (DFGLARDIYKDPD; UniProt P35968 1046-1058, looked up, fragment)")
"1.2 % of highest signal"
>>> reported("VGFR1_1235_1247 (ATSMFDDYQGDSS; UniProt P17948 1235-1247, looked up, fragment)")
"0.9 % of highest signal"

Exam item: Complete the entry with Relative phosphorylation (% of highest signal) for AMPE_5_17 (EREGSKRYCIQTK; UniProt Q07075 5-17, looked up, fragment)
Marked response: -1.5 % of highest signal

Exam item: Complete the entry with Relative phosphorylation (% of highest signal) for VGFR1_1320_1332_C1320K/C1321K (KKSPPPDYNSVVL; UniProt P17948 1320-1332, looked up, variant C1320K C1321K)
Marked response: -2.8 % of highest signal

----------
# Target desc: FES^WT (Homo sapiens, UniProt P07332)
# Construct: human FES cDNA encoding residues 448–822 or human FER cDNA encoding residues 448–820 was amplified by PCR; made in house; host or cells: E. coli BL21(DE3), co-expressing YopH phosphatase
# Sequence (P07332 448-822): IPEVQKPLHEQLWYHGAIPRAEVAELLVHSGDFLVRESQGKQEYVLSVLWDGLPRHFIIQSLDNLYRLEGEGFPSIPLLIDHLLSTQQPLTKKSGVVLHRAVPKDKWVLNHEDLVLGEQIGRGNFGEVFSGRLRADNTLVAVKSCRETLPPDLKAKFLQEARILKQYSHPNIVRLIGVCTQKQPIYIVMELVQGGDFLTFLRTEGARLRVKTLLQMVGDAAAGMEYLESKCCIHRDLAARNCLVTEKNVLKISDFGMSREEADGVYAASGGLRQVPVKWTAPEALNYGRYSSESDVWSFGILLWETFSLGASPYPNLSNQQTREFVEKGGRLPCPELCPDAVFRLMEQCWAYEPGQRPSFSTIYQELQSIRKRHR
# Assay explanation: PamChip microarray peptide phosphorylation
# Assay type: biochemical
# Run conditions: peptide substrate phosphorylated by FES - WT
Property: Relative phosphorylation (% of highest signal)

>>> reported("NTRK2_509_521 (PVIENPQYFGITN; UniProt Q16620 509-521, looked up, fragment)")
"-0.566 % of highest signal"
>>> reported("VGFR1_1235_1247 (ATSMFDDYQGDSS; UniProt P17948 1235-1247, looked up, fragment)")
"-0.11 % of highest signal"
>>> reported("PERI_458_470 (QRSELDKSSAHSY; UniProt P41219 458-470, looked up, fragment)")
"-0.5 % of highest signal"
>>> reported("STAT4_686_698 (TERGDKGYVPSVF; UniProt Q14765 686-698, looked up, fragment)")
"-0.247 % of highest signal"
>>> reported("VGFR3_1061_1073 (DIYKDPDYVRKGS; UniProt P35916 1061-1073, looked up, fragment)")
"-0.0595 % of highest signal"

Exam item: Complete the entry with Relative phosphorylation (% of highest signal) for MBP_263_275 (GRASDYKSAHKGF; UniProt P02686 263-275, looked up, fragment)
Marked response: -0.25 % of highest signal

Exam item: Complete the entry with Relative phosphorylation (% of highest signal) for STAT6_634_646 (MGKDGRGYVPATI; UniProt P42226 634-646, looked up, fragment)
Marked response: -0.355 % of highest signal

Exam item: Complete the entry with Relative phosphorylation (% of highest signal) for AMPE_5_17 (EREGSKRYCIQTK; UniProt Q07075 5-17, looked up, fragment)
Marked response: -0.1 % of highest signal
